System: Escherichia coli TOP10
Assay: shrunken log2 fold change of peptide-encoding DNA abundance (4.5 h post-induction vs induction); higher = less antimicrobial activity (less host growth inhibition)
Conditions: time post-induction: 4.5 h; library: site-saturation at positions 5, 18, 19, 20
Answer each item with its documented shrunken log2 fold change.
// response body must contain only the number

Exercise: Could you share what shrunken log2 fold change was measured for RRIRTRPPRLPRPRPRPIYRPRP , tested on Escherichia coli TOP10?;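 further: peptides expressed intracellularly from a pBAD plasmid library in pooled LB shake-flask culture, induced with 0.3% L-arabinose, DNA abundance read by NGS, three biological replicates, DESeq2 with apeglm shrinkage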
Key: -0.0278

Exercise: Now the same for RRIRMRPPRLPRPRPRPDRGPRP
Key: 0.367

Exercise: # iterate: RRIRFRPPRLPRPRPRPGQLPRP
Key: -0.0429

Exercise: Another sequence to look at: RRIRFRPPRLPRPRPRPTCRPRP
Key: -0.0357

Exercise: Queued: RRIRYRPPRLPRPRPRPPSRPRP
Key: 0.232

Exercise: Again, but for RRIRKRPPRLPRPRPRPAPDPRP
Key: 0.598

Exercise: Now consider RRIRWRPPRLPRPRPRPMMAPRP .
Key: 0.452

Exercise: Another sequence to check: RRIRQRPPRLPRPRPRPSYDPRP
Key: -0.251

Exercise: Record: RRIRHRPPRLPRPRPRPYWFPRP
Key: -0.963

Exercise: Continue with RRIRPRPPRLPRPRPRPHWNPRP
Key: -0.447

Exercise: RRIRARPPRLPRPRPRPIIEPRP ?
Key: 0.00879

Exercise: Then what about the sequence RRIRCRPPRLPRPRPRPVRMPRP ?
Key: -0.053

Exercise: Now this one: RRIRCRPPRLPRPRPRPSEFPRP
Key: -0.287

Exercise: Same lookup for RRIRSRPPRLPRPRPRPDRVPRP , please.
Key: -0.144

Exercise: Also RRIRHRPPRLPRPRPRPNFKPRP , if possible.
Key: -0.189

Exercise: And the next one, RRIRWRPPRLPRPRPRPKDAPRP ?
Key: 0.362

Exercise: Would you mind doing RRIRRRPPRLPRPRPRPRIAPRP as well?
Key: 0.652

Exercise: Also, RRIRVRPPRLPRPRPRPQFFPRP please.
Key: -0.0611

Exercise: Again, but for RRIRTRPPRLPRPRPRPMDQPRP
Key: 0.0595

Exercise: Please answer likewise for RRIRTRPPRLPRPRPRPKPIPRP
Key: 0.0226

Exercise: Record: RRIRIRPPRLPRPRPRPKKNPRP
Key: -0.249

Exercise: How about RRIRYRPPRLPRPRPRPLIRPRP ?
Key: -0.85

Exercise: Now consider RRIRERPPRLPRPRPRPPPPPRP and answer again.
Key: 0.646

Exercise: Then what about the sequence RRIRLRPPRLPRPRPRPCAKPRP ?
Key: 0.132

Exercise: What would you report for RRIRERPPRLPRPRPRPSWEPRP ?
Key: -0.25

Exercise: Next up: RRIRLRPPRLPRPRPRPQPRPRP
Key: 0.67

Exercise: One more sequence: RRIRERPPRLPRPRPRPWSYPRP
Key: 0.0168

Exercise: Same thing, different sequence: RRIRERPPRLPRPRPRPFFFPRP
Key: 0.0253

Exercise: What do we get for RRIRRRPPRLPRPRPRPANPPRP ?
Key: 0.364

Exercise: Can you handle RRIRKRPPRLPRPRPRPHFLPRP next?
Key: 0.12

Exercise: Also check RRIRNRPPRLPRPRPRPQPWPRP
Key: -0.00313

Exercise: Subsequent entry: RRIRKRPPRLPRPRPRPPITPRP
Key: 0.0882

Exercise: Cool, now RRIRDRPPRLPRPRPRPCNVPRP
Key: 0.0436

Exercise: Same thing, different sequence: RRIRERPPRLPRPRPRPCSCPRP
Key: -0.00783

Exercise: Lookup RRIRARPPRLPRPRPRPNTAPRP
Key: 0.181

Exercise: Also need RRIRFRPPRLPRPRPRPTPLPRP , thanks.
Key: 0.3

Exercise: Follow-up item: RRIRFRPPRLPRPRPRPASYPRP
Key: -0.218
